assay: chemical genetic growth profiling, strain panel (AID 1159580);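 note: tested at 20 µM; growth read once vehicle control cultures reached saturation at 30 °C; 1 = growth at the plate median or of vehicle wells; lower values mean less growth of the strain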; settings: S. cerevisiae deletion strains, growth OD, locus YDR388W
The campaign covered roughly 5,500 compounds. About 2,000 (36%) were called active. Roughly 18% stayed inconclusive and do not appear here. Cut-off read from the data, not from the text of the source: active = normalized growth mostly below about 0.91 (no sharp cut-off); inconclusive = no clear call, values can overlap the other calls; inactive = mostly above about 0.92. Some of the results follow.
Outcomes you can answer with include only these: active, inactive

Completed entries (count: 3):
COc1cc(Cc2cnc(N)nc2N)cc(OC)c1OC ... inactive
CC(C)N=C(N)N=C(N)Nc1ccc(Cl)cc1 ... inactive
NC(Cc1ccc(Cl)cc1)C(=O)O (stereo unspecified) ... inactive

Please indicate how the test categorized NC(=NCCCCCCN=C(N)N=C(N)Nc1ccc(Cl)cc1)N=C(N)Nc1ccc(Cl)cc1 .
active

Please indicate how the test categorized CC(=O)OC[C@@]1(O)C[C@@]23CCC4c5ccoc5CC[C@]4(C)C2CC[C@@H]1C3 (stereo partly specified) .
inactive

Please indicate how the test categorized O=C(/C=C/c1ccccc1)c1c(O)cc(O)cc1O .
inactive

====

assay: chemical genetic growth profiling, strain panel (AID 1159580);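 note: tested at 20 µM; growth read once vehicle control cultures reached saturation at 30 °C; 1 = growth at the plate median or of vehicle wells; lower values mean less growth of the strain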; conditions: S. cerevisiae deletion strains, growth OD, locus YNL161W, strain CBK1, stronger effect = lower value
The whole screen tested about 5,500 compounds, of which about 2,000 (36%) were called active. Roughly 18% stayed inconclusive and do not appear here. The list shows a part of the results.
metric: normalized growth
Give bare numbers.

O=C1C(NCc2ccccc2)=C(NCc2ccccc2)C(=O)c2ccccc21 ... 0.922
COC(=O)c1cc(I)c(OC(C)=O)c(I)c1 ... 0.961
O=C(/C=C/c1ccc(Cl)cc1)Nc1cccc(Cl)c1 ... 0.965

// each compound listed below needs its normalized growth
1. O=C(Nc1ccc(F)cc1)c1cc(Br)ccc1O
2. O=C1c2ccccc2C(=O)c2sccc21
3. COc1ccc(Oc2ccc([N+](=O)[O-])cc2C(=O)O/N=C(/N)c2ccc(C(F)(F)F)cc2)cc1
4. O=C(Nc1cc(Cl)cc(Cl)c1)c1cc(Br)ccc1O
5. CC(C)OC(=O)Nc1cc(Cl)cc(Cl)c1
6. O=[N+]([O-])c1ccc(NCc2ccc(Cl)c(Cl)c2)nc1
7. COc1cc(C2CC(=S)Nc3ccccc3S2)cc(OC)c1OC (centres undefined)
8. O=C(NCc1ccc2c(c1)OCO2)c1cc2ccccc2s1

[0.913, 0.636, 0.994, 0.947, 0.969, 0.93, 0.995, 0.868]

// each compound listed below needs its normalized growth
1. S=C(NCCc1csc2ccccc12)Nc1ccc(Cl)cc1
2. NNC(=O)c1oc2nc(-c3ccccc3)cc(-c3ccccc3)c2c1N
3. Cc1csc2ncnc(N3CCN(C(=S)Nc4ccc(C(F)(F)F)cc4)CC3)c12
4. CC(C)c1cccc(C(C)C)c1OC(=O)NC(=O)c1c(Cl)cccc1Cl
5. COc1cc(C2SCCS2)cc(Br)c1OC(=O)NC(=O)c1c(Cl)cccc1Cl
6. O=C(Nc1ccc(F)cc1F)c1cc(Cl)ccc1O
7. CCOC(=O)c1cnc(-c2ccccn2)[nH]c1=O

[0.952, 0.989, 0.997, 0.976, 0.951, 0.934, 0.933]

// each compound listed below needs its normalized growth
1. COc1ccc(OC)c2nc3c(nc12)C(=O)c1ccccc1-3
2. C=CCC1C(=O)N(S(=O)(=O)c2ccc(Cl)cc2)N=C1CCC (centres undefined)
3. CC(C)Sc1c(Cl)cccc1NC(=O)Nc1ccccc1
4. S=C(NCc1cccs1)Nc1cc(Cl)cc(Cl)c1

[0.958, 0.994, 0.975, 0.946]

// each compound listed below needs its normalized growth
1. CC(C)Sc1c(Cl)cccc1NC(=O)Nc1cccc(C(F)(F)F)c1
2. CC(C)(C)c1ccc(-c2cc(NC(=O)c3ccc(Cl)cc3)n[nH]2)cc1

[0.983, 1.02]
